# Read-out: Fatty Acid-Binding Protein 1 (FABP1), FABP1 (gene 2168)
# Test summary: LTEA_HepaRG_FABP1: Life Technologies and Expression Analysis (LTEA) Assay for Fatty Acid-Binding Protein 1 (FABP1) using HepaRG (AID 2283494)
# Stated conditions: mRNA level, 48 h; actives raise or lower the signal
Activity calls are given as the source filed them. The calls were made as follows: active = hit-call score of the fitted dose curve at least 0.9, where 1 is the maximum; inactive = score below 0.9.
// allowed return values: active, inactive

CCCCCCC(=O)OCC    inactive
COc1cc(S(=O)(=O)O)c(C)cc1N=Nc1c(O)ccc2cc(S(=O)(=O)O)ccc12    inactive
NCC1(Cc2noc(=O)[nH]2)CCCCC1    inactive
O=c1c(O)c(-c2ccc(O)c(O)c2)oc2cc(O)cc(O)c12    inactive
Cc1cccc(C)c1O    inactive

Prompt line: Identify the outcome logged in this assay for the molecule shown: CN1CCCC1=O
Response line: inactive

Prompt line: Here is the next molecule: CCc1c(C(=O)NN2CCCCC2)nn(-c2ccc(Cl)cc2Cl)c1-c1ccc(Br)cc1
Response line: active

Prompt line: Here is the next molecule: Nc1nc(N)c2nc(CNc3ccc(C(=O)N[C@@H](CCC(=O)O)C(=O)O)cc3)cnc2n1
Response line: inactive

Prompt line: Here is the next molecule: COCCOC[C@H](CC1(C(=O)NC2CCC(C(=O)O)CC2)CCCC1)C(=O)Oc1ccc2c(c1)CCC2 (stereo partly drawn)
Response line: inactive
